The reader will find reported solvation free energy, 298 K values listed item by item below.
Experiment: solvent given as SMILES
Conditions: in OCCCO
Measured Endpoint: solvation free energy, 298 K (kcal/mol)

1. CCc1ccccc1 -3.91
2. CCCCCCCC -2.59
3. CCCCCC -1.54
4. CCCCCCC -2.09

----------
Assay: solvent given as SMILES
Settings: in CCN1CCCC1=O
Field 'label' (enum: condition met / condition not met). Set to condition met when solvation free energy, 298 K is strictly under -3 kcal/mol; else condition not met.

1) CCCCCCCC condition met
2) CCCCC condition not met
3) CC(C)=O condition met
4) C1CCOC1 condition met
5) CCCCCCC condition met
6) CCC(C)(C)OC condition met
7) CCOCC condition not met
8) CCCCCC condition not met

----------
Assay: solvent given as SMILES
Conditions: in Cc1ccccc1C
Lab note: cut-off is -8 kcal/mol. Strictly less in solvation free energy, 298 K is YES. Exactly -8 kcal/mol or more is NO.

Molecule	Answer Label
c1ccc2cc3ccccc3cc2c1	YES
FC(F)(F)F	NO
CC(C)(c1ccc(O)cc1)c1ccc(O)cc1	YES
C=CC	NO
Oc1ccc(Cl)cc1	YES
Oc1ccc(Cl)cc1Cl	NO
CC(C)=O	NO
CCCCCCO	NO
C=C(C)C	NO
Oc1cccc(O)c1	YES
CC(F)F	NO
Oc1ccccc1	NO
CCC(C)O (stereo not drawn)	NO
Oc1ccccc1F	NO
c1cc2ccc3cccc4ccc(c1)c2c34	YES

----------
Experiment: solvent given as SMILES
Conditions: in CCCCCCCC(=O)OCC(COC(=O)CCCCCCC)OC(=O)CCCCCCC
Measured Endpoint: solvation free energy, 298 K (kcal/mol)

1. FC(F)C(F)(F)F -0.79
2. FC(F)(F)Cl -0.03
3. FC(F)(F)CCl -2.41
4. FC(F)(F)F 1.4
5. CC(F)(Cl)Cl -2.89
6. CC(F)F -1.37
7. FC(F)(Cl)Cl -1.36

----------
Assay: solvent given as SMILES
Settings: in O=C(O)C(Cl)Cl
Measured Endpoint: solvation free energy, 298 K (kJ/mol)

1. CCCCCCC -14.1
2. CC=C(C)C -11
3. CCCCC -8.87
4. CCCCCC -11.5

----------
Assay: solvent given as SMILES
Conditions: in O=C1CCCO1
Measured Endpoint: solvation free energy, 298 K (kcal/mol)

1. C[N+](=O)[O-] -5.44
2. CCO -4.44
3. CCCCCC -2.22
4. CCCCCCC -2.72
5. CC(C)CCC(C)C -2.85
6. CCCCCCCCC -3.71
7. CC(C)C(C)C(C)C -3.01
8. CCCCC -1.72
9. CCCCCCCC -3.22

----------
Experiment: solvent given as SMILES
Conditions: in CCC#N
Cut-off -4 kcal/mol on solvation free energy, 298 K: below means Yes, at or above means No.

1. CCCCC No
2. CC(C)C(C)C(C)C No
3. CCCCCC No
4. CCCCCCCCC Yes
5. CC(C)CCC(C)C No
6. CCc1ccccc1 Yes

----------
Test: solvent given as SMILES
Details: in CC(C)CO
solvation free energy, 298 K overview
Measured Endpoint: solvation free energy, 298 K (kcal/mol)

1) O=C(O)c1cccc([N+](=O)[O-])c1C(=O)O -17.8
2) Cc1cc(C)c(C)cc1C -6.52
3) CCO -4.79
4) Brc1ccc(Br)cc1 -6.92
5) c1ccncc1 -5.67
6) O=[N+]([O-])c1cccc2ccccc12 -9.55
7) CCc1ccc2c(c1)C(=O)c1ccccc1C2=O -12.1
8) CCCCCCC -3.92
9) c1cc2ccc3cccc4ccc(c1)c2c34 -11.2
10) O=C(Oc1ccccc1)Oc1ccccc1 -11.2
11) O=C(O)c1cccc([N+](=O)[O-])c1 -12.1
12) CCCCCC -3.36
13) c1ccc2cc3ccccc3cc2c1 -9.77
14) C=C(C)C -1.98
15) C=CC -1.3
16) O=S(=O)(c1ccccc1)c1ccccc1 -13.2
17) O=C(O)c1cc([N+](=O)[O-])ccc1Cl -12.7
18) O=C(O)c1ccc(Cl)c([N+](=O)[O-])c1 -12.9
19) COc1ccc(C(=O)O)cc1 -11.5
20) c1ccc2ccccc2c1 -7.09
21) Nc1ccc(C(=O)O)cc1 -13.8
22) c1ccc2c(c1)Sc1ccccc1S2 -11.1
23) FC(F)(F)F 1
24) CC(F)F -1.35
25) CCc1ccccc1 -4.95
26) c1ccc(-c2ccccc2)cc1 -8.03
27) NC(=O)c1ccccc1O -11.9
